target: native mouse MET on living cells (mouse, UniProt P16056 25-1379); test: cell-based or functional assay
This listing pairs binders with measured phospho-MET ELISA EC50, MLP29 cells.
QUANTITY_MEASURED: phospho-MET ELISA EC50, MLP29 cells (nM)

binder="74C8 chimeric llama-human IgG1 mAb (antibody, V domains shown, llama VH on human IgG1 CH1-CH2-CH3, llama VL on human lambda CL) VH: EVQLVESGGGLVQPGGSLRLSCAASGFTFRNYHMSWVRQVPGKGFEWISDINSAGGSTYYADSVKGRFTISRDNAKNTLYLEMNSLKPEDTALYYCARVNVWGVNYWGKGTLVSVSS VL: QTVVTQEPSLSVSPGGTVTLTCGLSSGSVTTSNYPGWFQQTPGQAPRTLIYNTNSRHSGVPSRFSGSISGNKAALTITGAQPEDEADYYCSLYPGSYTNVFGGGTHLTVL" units=nM reported_measurement=0.41
binder="72F8 chimeric llama-human IgG1 mAb (antibody, V domains shown, llama VH on human IgG1 CH1-CH2-CH3, llama VL on human lambda CL) VH: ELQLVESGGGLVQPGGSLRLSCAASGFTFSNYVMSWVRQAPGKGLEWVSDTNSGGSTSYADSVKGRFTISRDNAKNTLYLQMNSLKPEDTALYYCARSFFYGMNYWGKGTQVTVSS VL: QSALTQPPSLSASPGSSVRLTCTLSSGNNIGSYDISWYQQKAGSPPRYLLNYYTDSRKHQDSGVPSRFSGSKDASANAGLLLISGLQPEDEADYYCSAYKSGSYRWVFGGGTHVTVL" units=nM reported_measurement=0.79
binder="71C3 chimeric llama-human IgG1 mAb (antibody, V domains shown, llama VH on human IgG1 CH1-CH2-CH3, llama VL on human lambda CL) VH: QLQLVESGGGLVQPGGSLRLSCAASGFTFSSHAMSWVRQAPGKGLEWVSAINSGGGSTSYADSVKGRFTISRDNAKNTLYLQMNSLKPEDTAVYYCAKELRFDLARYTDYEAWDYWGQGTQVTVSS VL: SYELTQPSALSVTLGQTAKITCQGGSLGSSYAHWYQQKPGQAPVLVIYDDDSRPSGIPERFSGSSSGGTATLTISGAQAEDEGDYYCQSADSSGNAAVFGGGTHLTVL" units=nM reported_measurement=0.33
